Molecular target: recombinant mouse APA (Mus musculus)
Sequence (P16406 whole entry): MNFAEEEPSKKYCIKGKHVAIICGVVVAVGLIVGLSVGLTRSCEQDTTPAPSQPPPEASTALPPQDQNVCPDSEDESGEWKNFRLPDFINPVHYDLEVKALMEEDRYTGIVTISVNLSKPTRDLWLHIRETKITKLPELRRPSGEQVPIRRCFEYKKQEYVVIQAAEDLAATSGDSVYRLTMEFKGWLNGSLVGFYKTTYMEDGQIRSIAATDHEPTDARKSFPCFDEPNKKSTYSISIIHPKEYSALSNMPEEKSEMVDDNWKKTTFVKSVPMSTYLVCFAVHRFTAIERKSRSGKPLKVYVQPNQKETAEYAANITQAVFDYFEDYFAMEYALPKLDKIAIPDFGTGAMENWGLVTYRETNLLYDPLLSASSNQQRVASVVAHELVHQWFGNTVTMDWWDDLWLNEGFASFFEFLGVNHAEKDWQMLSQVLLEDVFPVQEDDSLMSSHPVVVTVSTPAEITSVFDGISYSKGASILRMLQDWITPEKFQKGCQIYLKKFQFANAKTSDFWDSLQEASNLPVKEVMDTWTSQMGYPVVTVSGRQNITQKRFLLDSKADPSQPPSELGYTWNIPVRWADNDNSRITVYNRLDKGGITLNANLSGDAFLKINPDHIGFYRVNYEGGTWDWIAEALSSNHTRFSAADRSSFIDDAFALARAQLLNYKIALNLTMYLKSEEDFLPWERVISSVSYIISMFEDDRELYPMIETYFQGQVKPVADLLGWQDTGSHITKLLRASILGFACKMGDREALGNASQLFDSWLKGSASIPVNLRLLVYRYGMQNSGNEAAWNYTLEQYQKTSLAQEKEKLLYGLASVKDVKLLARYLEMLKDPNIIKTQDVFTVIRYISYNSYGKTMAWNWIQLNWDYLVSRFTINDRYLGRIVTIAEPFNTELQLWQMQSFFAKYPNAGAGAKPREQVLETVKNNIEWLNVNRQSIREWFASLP
Experiment: Measurement of APA activity in vitro (hydrolysis of GluβNa, colorimetric)
Settings: 200 μM Glu-βNa, pH 7.4, 37° C., 4 mM CaCl2, read-out: In vitro inhibition of aminopeptidase A, IC50 classification
Parameter measured: IC50

response.value for NC(CCC(=O)O)P(=O)(O)CCC1CCCCC1 (centres unmarked) (field: IC50) = 30 to 300 nM

response.value for NC(CCC(=O)O)P(=O)(O)CCCC(F)(F)F (centres unmarked) (field: IC50) = 30 to 300 nM

response.value for NC(CCC(=O)O)P(=O)(O)CC1CCC1 (centres unmarked) (field: IC50) = < 30 nM

response.value for CCCCCCP(=O)(O)C(N)CCC(=O)O (centres unmarked) (field: IC50) = 30 to 300 nM

response.value for NC(CCC(=O)O)P(=O)(O)CC1CCCC1 (centres unmarked) (field: IC50) = < 30 nM
